These measurements were taken from patent US20210403576A1.

Biological target: c-Met protein receptors on HUVEC (human, UniProt P08581 25-1390)
Sequence (P08581 25-1390): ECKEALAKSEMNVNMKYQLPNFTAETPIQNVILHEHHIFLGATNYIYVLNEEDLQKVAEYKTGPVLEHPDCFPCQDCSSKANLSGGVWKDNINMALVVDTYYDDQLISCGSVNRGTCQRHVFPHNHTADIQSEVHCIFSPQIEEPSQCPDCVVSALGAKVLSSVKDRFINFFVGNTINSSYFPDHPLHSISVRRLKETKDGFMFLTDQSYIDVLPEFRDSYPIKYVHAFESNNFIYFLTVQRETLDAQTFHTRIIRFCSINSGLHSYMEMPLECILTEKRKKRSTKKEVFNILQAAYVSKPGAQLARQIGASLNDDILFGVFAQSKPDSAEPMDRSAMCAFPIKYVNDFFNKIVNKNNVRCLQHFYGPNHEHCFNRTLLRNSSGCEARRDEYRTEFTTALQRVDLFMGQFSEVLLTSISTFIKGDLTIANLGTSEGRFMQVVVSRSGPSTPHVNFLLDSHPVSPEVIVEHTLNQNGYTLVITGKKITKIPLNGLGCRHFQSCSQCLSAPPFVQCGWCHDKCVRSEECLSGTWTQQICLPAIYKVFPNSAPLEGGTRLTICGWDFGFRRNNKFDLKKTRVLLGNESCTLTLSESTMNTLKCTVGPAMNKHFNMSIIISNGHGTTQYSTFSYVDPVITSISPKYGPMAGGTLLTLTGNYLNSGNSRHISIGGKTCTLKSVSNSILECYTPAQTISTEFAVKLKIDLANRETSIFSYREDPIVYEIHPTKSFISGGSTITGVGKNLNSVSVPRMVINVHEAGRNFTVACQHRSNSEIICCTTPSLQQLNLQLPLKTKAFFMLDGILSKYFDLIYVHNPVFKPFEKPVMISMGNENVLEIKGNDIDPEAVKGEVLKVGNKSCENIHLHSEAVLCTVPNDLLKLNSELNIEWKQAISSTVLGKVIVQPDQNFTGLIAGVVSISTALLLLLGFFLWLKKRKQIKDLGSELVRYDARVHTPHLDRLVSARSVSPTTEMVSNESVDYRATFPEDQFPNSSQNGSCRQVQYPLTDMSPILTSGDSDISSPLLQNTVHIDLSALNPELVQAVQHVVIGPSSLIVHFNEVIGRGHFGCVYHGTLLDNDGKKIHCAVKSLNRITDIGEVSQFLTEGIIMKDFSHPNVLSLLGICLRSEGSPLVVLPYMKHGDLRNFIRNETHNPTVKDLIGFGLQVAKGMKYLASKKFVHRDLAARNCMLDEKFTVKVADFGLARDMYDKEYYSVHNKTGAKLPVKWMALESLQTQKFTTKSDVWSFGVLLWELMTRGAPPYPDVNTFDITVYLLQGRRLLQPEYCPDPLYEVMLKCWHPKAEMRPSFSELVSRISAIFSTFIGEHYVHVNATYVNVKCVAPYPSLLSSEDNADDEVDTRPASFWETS
Assay: cell-based or functional assay
READOUT NAME: Index 2 (Relative Migration relative to VH0/Vk0), HUVEC migration assay
Number, no unit, nothing else.

What value of measured Index 2 (Relative Migration relative to VH0/Vk0), HUVEC migration assay is listed for VH2/Vk0 (antibody, IgG1, V domains shown, Full IgG1/kappa expressed in HEK 293 EBNA cells) VH: EVQLVQSGAEVKKPGESLKISCKGSGYSFPTHWITWVRQMPGKGLEWMGTIDPTDSYNFYGPSFQGQVTISADKSISTAYLQWSSLKASDTAMYYCARDGNYYDSRGYYYDTFDMWGQGTLVTVSS VL: DIQMTQSPSFLSASVGDRVTITCRASQGISTYLAWYQQKPGTAPKLLIYSASTLESGVPSRFSGSGSGTDFTLTISSLQPEDSATYYCQQADSFPLTFGGGTKVEIK ? 1.04
